Tgt: T1, GPC3 (UniProt P51654 25-559, limits assumed)
T1 construct: also called antigen GPC3; Glypican 3
Measurement description: SPR (Biacore T200); scFv-Fc captured by anti-human Fc pAb, GPC3 10-320 nM in flow
Recorded kon by entry
Answer format: numeric, M⁻¹ s⁻¹ implied, no suffix.

binder="VL1-VH2.M5 humanized scFv (scFv, not shown: a dimerising Fc or GST, Crude scFv with Fc tag from HEK293 supernatant) scFv: DIVMTQTPLSLSVTPGQPASISCRSSQSLVHSNGNTYLHWYLQKPGQSPQLLIYKVSNRFSGVPDRFSGSGSGTDFTLKISRVEAEDVGVYYCSQNTHVPPTFGQGTKVEIKGGGGSGGGGSGGGGSQVQLVQSGAEVKKPGASVKVSCKASGYTFTDYEMHWVRQAPGQGLEWMGALDPKTGDTAYSQKFQGRVTLTADTSTSTVYMELSSLRSEDTAVYYCTRFYSYTYWGQGTLVTVSS" measured_value=170000
binder="VL1.M2-VH2.M1 humanized scFv (scFv, not shown: a dimerising Fc or GST, Crude scFv with Fc tag from HEK293 supernatant) scFv: DIVMTQTPLSLSVTPGQPASISCRSSQSLVHSNGNTYLHWYLQKPGQSPQLLIYKVSSRFSGVPDRFSGSGSGTDFTLKISRVEAEDVGVYYCSQNTHVPPTFGQGTKVEIKGGGGSGGGGSGGGGSQVQLVQSGAEVKKPGASVKVSCKASGYTFTSYEMHWVRQAPGQGLEWMGALDPKTGDTAYSQKFKGRVTLTADTSTSTVYMELSSLRSEDTAVYYCTRFYSYTYWGQGTLVTVSS" measured_value=170000

### Prompt Give its kon value. Item: mouse anti-GPC3 GC33 scFv (VL-VH) (scFv, also called mouse scFv; not shown: C-terminal Fc tag (human Fc, used only for capture on the anti-human Fc chip) and any junction to it) scFv: DVVMTQTPLSLPVSLGDQASISCRSSQSLVHSNGNTYLHWYLQKPGQSPKLLIYKVSNRFSGVPDRFSGSGSGTDFTLKISRVEAEDLGVYFCSQNTHVPPTFGSGTKLEIKGGGGSGGGGSGGGGSQVQLQQSGAELVRPGASVKLSCKASGYTFTDYEMHWVKQTPVHGLKWIGALDPKTGDTAYSQKFKGKATLTADKSSSTAYMELRSLTSEDSAVYYCTRFYSYTYWGQGTLVTVSA
### Response 130000

Source listed as patent US20250297029A1.
